# study-system: P2X purinoceptor 7 (Homo sapiens)
# Sequence (Q99572 whole entry): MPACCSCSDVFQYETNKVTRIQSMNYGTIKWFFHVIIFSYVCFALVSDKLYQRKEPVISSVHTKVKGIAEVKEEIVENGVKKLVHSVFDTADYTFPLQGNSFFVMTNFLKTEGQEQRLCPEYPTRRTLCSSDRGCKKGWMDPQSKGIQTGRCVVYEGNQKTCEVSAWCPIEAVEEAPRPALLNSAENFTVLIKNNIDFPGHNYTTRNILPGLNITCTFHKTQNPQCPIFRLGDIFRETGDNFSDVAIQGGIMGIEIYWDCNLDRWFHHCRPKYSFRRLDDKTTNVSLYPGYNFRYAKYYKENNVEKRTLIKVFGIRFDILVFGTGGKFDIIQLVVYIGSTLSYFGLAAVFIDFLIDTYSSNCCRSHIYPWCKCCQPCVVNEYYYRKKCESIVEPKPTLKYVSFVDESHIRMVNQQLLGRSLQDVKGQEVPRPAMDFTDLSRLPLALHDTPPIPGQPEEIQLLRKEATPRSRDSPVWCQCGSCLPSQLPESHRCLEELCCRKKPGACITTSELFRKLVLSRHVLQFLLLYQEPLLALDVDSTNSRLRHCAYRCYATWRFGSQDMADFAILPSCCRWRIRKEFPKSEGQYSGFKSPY
pIC50: −log10 of the molar value.

| compound-smiles | pIC50 |
| --- | --- |
| CCN(C)C(=O)Cn1cc(C(=O)NCC2CCC(F)(F)CC2)c2c(Cl)cccc21 | > 8.00 |
